The measurements presented in this section are drawn from PubChem BioAssay (NCATS).

- target.under.test: Luciferin 4-monooxygenase (Photinus pyralis) (UniProt P08659)
- assay.remarks: Primary firefly luciferase (FLuc) qHTS assay for identification of artifact compounds. (AID 1845220); also: nearly all actives have a fitted effect of over 60% in size;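 as to activity change, negative = inhibition: plate controls were DMSO vehicle for no effect and no enzyme for full effect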
- condition.label: purified firefly luciferase, luminescence, 5 min; series mostly up to 54.1 µM
Active and inactive are the calls of the source. Calls follow the shape of the dose curve; as a rule, active = well fitted inhibition curve with a large enough effect; inconclusive = small, poorly fitted or top-dose-only effect; inactive = flat fitted curve, though single readings scatter.
value.kind: activity change, negative = inhibition

C[C@]12CCC(=O)C=C1[C@@H](O)C[C@@H]1[C@@H]2[C@@H](O)C[C@@]2(C)[C@H]1CC[C@]2(O)C(=O)CO
inactive
Cn1c(=O)cc(N2CCCC(N)C2)n(Cc2ccccc2C#N)c1=O (configuration not stated)
inactive
COC1=CC(=O)O[C@@H](/C=C/c2ccccc2)[C@@H]1O
inactive
COC(=O)C1=COC(OC2OC(CO)C(O)C(O)C2O)C2C1CC(OC(=O)C(O)CC(=O)O)C2C (configuration not stated)
inactive
Cc1cn2c(N)c(Cl)cc(C(=O)NCC3CCN(CC(C)C)CC3)c2n1
inactive
CC1OC(OC2C(C)OC(OC3C(OC(=O)/C=C/c4ccc(O)cc4)C(CO)OC(OC4(COC(=O)/C=C/c5ccc(O)cc5)OC(CO)C(O)C4O)C3OC3OCC(O)(CO)C3O)C(O)C2O)C(O)C(O)C1O (configuration not stated)
-0.562% [at 11.6 µM] (inactive)
CCC(NC(=O)CC(NC(=O)C(CO)NC(=O)C(CC)NC(=O)c1ccc[nH]1)c1ccccc1)C(=O)O (configuration not stated)
inactive
CC(=O)O[C@H]1CC[C@@]2(CI)C(=CC[C@@H]3[C@@H]2CC[C@]2(C)[C@@H]([C@H](C)CCCC(C)C)CC[C@@H]32)C1
3.6% [at 11.6 µM] (inactive)
Cc1c(-c2ccnn2C)cc(C(=O)NCc2ccc(S(C)(=O)=O)cn2)c(=O)n1-c1cccc(C(F)(F)F)c1
inactive
Cc1cc(N2CCCCC2)nc2ccccc12
inactive

Input CCCCCCc1cccc(NC(=O)[C@H](N)CCP(=O)(O)O)c1 . Output activity change, negative = inhibition: 2.4% [at 11.6 µM] (inactive)

Input CC(C)C1(O[C@@H]2O[C@H](CO)[C@@H](O)[C@H](O)[C@H]2O)CC=C(CO)CC1 (some centres not stated) . Output activity change, negative = inhibition: inactive

Input COc1cc(/C=C/C(=O)OC2CC3CCC2(C)C3(C)C)ccc1O (configuration not stated) . Output activity change, negative = inhibition: inactive

Input CC(C)(C)c1cc(CN2CCN(CC(O)c3ccc(Cl)cc3)CC2)cc(C(C)(C)C)c1O (configuration not stated) . Output activity change, negative = inhibition: inactive

Input Cc1cccc(-c2[nH]c(CNc3ccccc3F)nc2-c2ccc3ncnn3c2)n1 . Output activity change, negative = inhibition: inactive

Input C(#Cc1cccc(CN2CCOCC2)c1)CCN1CCCCC1 . Output activity change, negative = inhibition: inactive

Input CC1OC(OC2C(CO)OC(OCC3OC(OC(=O)C45CCC(C)(C)CC4C4=CCC6C7(C)CCC(OC8OC(C(=O)O)C(O)C(OC9OC(CO)C(O)C(O)C9O)C8O)C(C)(C)C7CCC6(C)C4(C)CC5)C(O)C(O)C3O)C(O)C2O)C(O)C(O)C1O (configuration not stated) . Output activity change, negative = inhibition: -1.13% [at 11.6 µM] (inactive)

----------
- System: CASKI
- assay.remarks: Primary qHTS to identify gynecologic anti-cancer compounds using libraries of approved drugs and bioactive compounds (AID 1345084); also: % is scaled to controls: 0 for no effect and ±100 for the full control effect; nearly all actives have a fitted effect of over 55% in size
- condition.label: Gynecologic cancer cell panel viability, ATPlite luminescence, 48 h; series mostly up to 57.5 µM
Inconclusive results are not listed. Active and inactive are the calls of the source. The call rests on the fitted dose curve; in most records, active means well fitted cell-killing curve with a large enough effect; inconclusive means small, poorly fitted or top-dose-only effect, or effect the other way; inactive means flat fitted curve, though single readings scatter.
value.kind: activity change, negative = cytotoxicity

O=C(O)C[C@H]1CCC(=O)[C@@H]1C/C=C\CCOC1OC(CO)C(O)C(O)C1O (some centres undefined)
inactive
C[C@@H]1O[C@@H](O[C@H]2[C@H](O[C@H]3[C@H](O[C@H]4CC[C@@]5(CO)C(CC[C@]6(C)C5CC=C5C7CC(C)(C)C[C@@H](O)[C@]7(C)CC[C@]56C)C4(C)C)O[C@H](C(=O)O)[C@@H](O)[C@@H]3O)OC[C@@H](O)[C@@H]2O)[C@H](O)[C@H](O)[C@H]1O (some centres undefined)
6.9% [at 11.6 µM] (inactive)
OC1COC(OCC2OC(OCCc3ccccc3)C(O)C(O)C2O)C(O)C1O (centres undefined)
inactive
CC(=O)OC1C(O)CC(O[C@@H]2O[C@H](CO)[C@@H](O)[C@H](O)[C@H]2O)C2CCC3C(=O)OC(c4ccoc4)CC3(C)C21 (some centres undefined)
inactive

----------
- assay.remarks: Drug repurposing screens with cells derived from glioblastoma tumor samples (AID 1345199); also: % is scaled to controls: 0 for no effect and ±100 for the full control effect; nearly all actives have a fitted effect of over 40% in size
- condition.label: GBM patient neurospheres viability, ATP luminescence, 48 h; at 45.9 µM (top of the series); tumour line D
- Protocol: CD133+ cells were isolated from GBM patient biopsies and cultured as neurospheres. Neurospheres from four patients were used to screen the NCATS pharmaceutical collection (NPC) library of approved drugs and bioactive compounds. […] The neurospheres were incubated with drugs for 48 hours in 1536-well format, then assayed with an ATP content cell viability assay. […]
Records with an inconclusive call do not appear.
# if measured activity, negative = cell killing < -20%: 1.0  # else: 0.0

Please review the entries below; each comes with its answer.
O=C(O)c1cc(=O)c2c3nc4ccccc4oc-3cc(=O)c2[nH]1
0.0
CO[C@H]1C=CO[C@@]2(C)Oc3c(C)c(O)c4c(O)c(c5c(nc6cc(C)ccn65)c4c3C2=O)NC(=O)/C(C)=C\C=C[C@H](C)[C@H](O)[C@@H](C)[C@@H](O)[C@@H](C)[C@H](OC(C)=O)[C@@H]1C
1.0
CCCC(=O)O[C@]1(C(=O)COC(C)=O)CC[C@H]2[C@@H]3C[C@H](F)C4=CC(=O)C=C[C@]4(C)[C@@]3(F)[C@@H](O)C[C@@]21C
1.0

Ask: is_below(activity, negative = cell killing, -20%) for CCC(=O)O[C@]1(C(=O)CCl)[C@@H](C)C[C@H]2[C@@H]3C[C@H](F)C4=CC(=O)C=C[C@]4(C)[C@@]3(F)[C@@H](O)C[C@@]21C ?
Result: 1.0

Ask: is_below(activity, negative = cell killing, -20%) for CC1(C)C(C=C(Cl)Cl)C1C(=O)OCc1cccc(Oc2ccccc2)c1 (configuration not stated) ?
Result: 0.0

Ask: is_below(activity, negative = cell killing, -20%) for C[C@]12C=CC(=O)C=C1CC[C@@H]1[C@@H]2[C@@H](O)C[C@@]2(C)[C@H]1CC[C@]2(O)C(=O)COC(=O)CCC(=O)O ?
Result: 0.0

----------
- Tested on: OV90
- assay.remarks: Primary qHTS to identify gynecologic anti-cancer compounds using libraries of approved drugs and bioactive compounds (AID 1345084); also: % is scaled to controls: 0 for no effect and ±100 for the full control effect; nearly all actives have a fitted effect of over 55% in size
- condition.label: Gynecologic cancer cell panel viability, ATPlite luminescence, 48 h; series mostly up to 57.5 µM
Records with an inconclusive call do not appear. The source made the active and inactive calls. Calls follow the shape of the dose curve; as a rule, active = well fitted cell-killing curve with a large enough effect; inconclusive = small, poorly fitted or top-dose-only effect, or effect the other way; inactive = flat fitted curve, though single readings scatter.
value.kind: activity change, negative = cytotoxicity

Sample answers from the record:
C[C@@H]1CC[C@]2(C)C(C[C@@H](O)[C@H](O)[C@]23CO3)[C@@]1(C)CCc1ccoc1 (stereo partly drawn)
inactive
O=C(O)c1cc(O)c2cccc(O)c2c1O[C@@H]1O[C@H](CO)[C@@H](O)[C@H](O)[C@H]1O
inactive
CON(C)C(=O)N1N=C(c2cc(F)ccc2F)S[C@@]1(CCCN)c1ccccc1
inactive
C=C1CCC2[C@@](C)(C=O)CCC[C@]2(C)[C@H]1CC/C(C)=C/CO (stereo partly drawn)
inactive

Input C=CC(C)(CC/C=C(\C)CC/C=C(\C)CC(O)/C=C(\C)C(=O)O)O[C@@H]1O[C@H](CO)[C@@H](O)[C@H](O)[C@H]1O[C@@H]1O[C@H](CO)[C@@H](O)[C@H](O)[C@H]1O (stereo partly drawn) . Output activity change, negative = cytotoxicity: inactive

Input CC(C)CC(=O)OC[C@H]1O[C@@](COC(=O)CC(C)C)(O[C@H]2O[C@H](CO)[C@@H](O)[C@H](O)[C@H]2O)[C@@H](OC(=O)CC(C)C)[C@@H]1OC(=O)CC(C)C . Output activity change, negative = cytotoxicity: inactive

Input CC1(C)CC2C3=CCC4C5(C)CCC(OC6OC(CO)C(O)C(OC7OC(CO)C(O)C(OC8OC(CO)C(O)C(OC9OC(COC%10OC(CO)C(O)C(O)C%10O)C(O)C(O)C9O)C8O)C7O)C6O)C(C)(C)C5CCC4(C)C3(C)CCC2(C(=O)O)CC1O (stereo not drawn) . Output activity change, negative = cytotoxicity: 0.668% [at 6.55 µM] (inactive)

Input CCC(C)C(=O)O[C@@H]1[C@@H](O)[C@@H](O[C@H]2O[C@H](CO)[C@@H](O)[C@H](O)[C@H]2O)O[C@H](CO)[C@H]1O (stereo partly drawn) . Output activity change, negative = cytotoxicity: inactive

Input NS(=O)(=O)OC[C@@H]1C[C@@H](n2ccc3c(N[C@H]4CCc5ccccc54)ncnc32)C[C@@H]1O . Output activity change, negative = cytotoxicity: inactive

Input C=C(C)[C@@H](C)[C@H]1O[C@]23C[C@]4(CO2)C(CCC2[C@@]5(C)CC[C@H](O[C@@H]6OC[C@H](O)[C@H](O[C@@H]7O[C@H](CO)[C@@H](O)[C@H](O)[C@H]7O)[C@H]6O[C@@H]6O[C@@H](CO)[C@H](O)[C@H]6O)C(C)(C)C5CC[C@]24C)C3[C@@](C)(O)[C@@H]1OC(C)=O (stereo partly drawn) . Output activity change, negative = cytotoxicity: 2.63% [at 11.6 µM] (inactive)

Input CC(C)(O)C1CC=C(C(=O)OCC2OC(Oc3c(O)cc(C(=O)O)cc3O)C(O)C(O)C2O)CC1 (stereo not drawn) . Output activity change, negative = cytotoxicity: inactive

Input COc1cccc(-n2nc(C(=O)O)cc2-c2ccc(C3CCCCC3)c(Cl)c2)c1 . Output activity change, negative = cytotoxicity: inactive

Input Nc1nonc1C(=Nc1ccc(F)c(Cl)c1)NO . Output activity change, negative = cytotoxicity: inactive
